- Tested on: GOTO
- protocol_summary: cells
- Format: functional, cell-based
- condition_set: Homo sapiens
- Description: SANGER: Inhibition of human GOTO cell growth in a cell viability assay.
observed_property: IC50

In the examples that follow, each entry is paired with its recorded IC50.
[
  {
    "compound": "CCNc1cc(N[C@H]2CC[C@@H](O)CC2)nc(Nc2ccc3c(ccn3Cc3ccccc3)c2)n1",
    "IC50": "> 5.12 µM"
  },
  {
    "compound": "COc1cc(C)c(Sc2cnc(NC(=O)c3ccc(CNC(C)C(C)(C)C)cc3)s2)cc1C(=O)N1CCN(C(C)=O)CC1 (stereo not drawn)",
    "IC50": "> 10.2 µM"
  },
  {
    "compound": "CCn1c(-c2nonc2N)nc2cnc(Oc3cccc(NC(=O)c4ccc(OCCN5CCOCC5)cc4)c3)cc21 [GSK-269962A]",
    "IC50": "> 2.5 µM"
  },
  {
    "compound": "CC(=O)c1c(C)c2cnc(Nc3ccc(N4CCNCC4)cn3)nc2n(C2CCCC2)c1=O [PALBOCICLIB]",
    "IC50": "> 4 µM"
  }
]

GET IC50 where system = GOTO and item = C[C@]1(c2nc3c(C(N)=O)cccc3[nH]2)CCCN1 [VELIPARIB]
> 5 µM

GET IC50 where system = GOTO and item = CCNC(=O)c1noc(-c2cc(C(C)C)c(O)cc2O)c1-c1ccc(CN2CCOCC2)cc1 [LUMINESPIB]
0.172 µM

GET IC50 where system = GOTO and item = CCCS(=O)(=O)Nc1ccc(F)c(C(=O)c2c[nH]c3ncc(Cl)cc23)c1F [PLX-4720]
> 10 µM

GET IC50 where system = GOTO and item = CC(C)=CC[C@@H](O)C1=CC(=O)c2c(O)ccc(O)c2C1=O [SHIKONIN];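 also: growth inhibition of GOTO cells, read out by a cell viability assay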
4.59 µM

* * *

- System: HOP-62;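 also: cell growth inhibition determined with a viability assay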
- protocol_summary: cells
- Type: functional, cell-based
- condition_set: Homo sapiens
- Description: SANGER: Inhibition of human HOP-62 cell growth in a cell viability assay.
This listing pairs compounds with measured IC50.
Numbers only here, please. The scale is nM.

In the examples that follow, each entry is paired with its recorded IC50.
[
  {
    "smiles_entry": "Cc1n[nH]c2ccc(-c3cncc(OC[C@@H](N)Cc4c[nH]c5ccccc45)c3)cc12",
    "unit_symbol": "nM",
    "IC50": 140
  },
  {
    "smiles_entry": "CC(C)=CC[C@@H](O)C1=CC(=O)c2c(O)ccc(O)c2C1=O",
    "unit_symbol": "nM",
    "IC50": 1160
  }
]

Note: attention shifts to another entry.
Report measured IC50; entry is Cn1cc(/C=C2\C(=O)Nc3cccnc32)c2ccccc21
322

* * *

- Tested on: CAL-27;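 also: Viability-based readout, IC50 reflecting inhibition of CAL-27 cell growth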
- protocol_summary: cells
- Format: functional, cell-based
- condition_set: Homo sapiens
- Description: SANGER: Inhibition of human CAL-27 cell growth in a cell viability assay.
observed_property: IC50 (nM)
Numbers only here, please. The scale is nM.

In the examples that follow, each entry is paired with its recorded IC50.
[
  {
    "compound": "CC[C@@]1(O)C(=O)OCc2c1cc1n(c2=O)Cc2cc3ccccc3nc2-1 [CAMPTOTHECIN]",
    "IC50 / nM": 2.02
  },
  {
    "compound": "COc1cc(Nc2c(C#N)cnc3cc(OCCCN4CCN(C)CC4)c(OC)cc23)c(Cl)cc1Cl [BOSUTINIB]",
    "IC50 / nM": 929
  }
]

Report measured IC50; entry is CC(=O)c1c(C)c2cnc(Nc3ccc(N4CCNCC4)cn3)nc2n(C2CCCC2)c1=O [PALBOCICLIB]
495

Report measured IC50; entry is Cn1c(=O)n(-c2ccc(C(C)(C)C#N)cc2)c2c3cc(-c4cnc5ccccc5c4)ccc3ncc21 [DACTOLISIB]
217

* * *

- System: MHH-CALL-2;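 also: growth inhibition of the cell line, read out in a cell viability assay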
- protocol_summary: cells
- Type: functional, cell-based
- condition_set: Homo sapiens
- Description: SANGER: Inhibition of human MHH-CALL-2 cell growth in a cell viability assay.
This listing pairs compounds with measured IC50.

In the examples that follow, each entry is paired with its recorded IC50.
[
  {
    "compound": "O=c1[nH]c2ccccc2n1C1CCN(Cc2ccc(-c3nc4cc5[nH]cnc5cc4nc3-c3ccccc3)cc2)CC1",
    "assay_target": "MHH-CALL-2",
    "observed_property": "IC50",
    "assay_value": "> 2560 nM"
  },
  {
    "compound": "COc1cc(C)c(Sc2cnc(NC(=O)c3ccc(CNC(C)C(C)(C)C)cc3)s2)cc1C(=O)N1CCN(C(C)=O)CC1 (stereo unspecified)",
    "assay_target": "MHH-CALL-2",
    "observed_property": "IC50",
    "assay_value": "> 10200 nM"
  },
  {
    "compound": "C/C=C(/C)C(=O)O[C@H]1C(C)=C2[C@H]([C@@H]1OC(=O)CCCCCCC)[C@@](C)(OC(C)=O)C[C@H](OC(=O)CCC)[C@@]1(O)[C@H]2OC(=O)[C@@]1(C)O",
    "assay_target": "MHH-CALL-2",
    "observed_property": "IC50",
    "assay_value": "468 nM"
  },
  {
    "compound": "Cc1ccc(NC(=O)c2cccc(C(C)(C)C#N)c2)cc1Nc1ccc2ncn(C)c(=O)c2c1",
    "assay_target": "MHH-CALL-2",
    "observed_property": "IC50",
    "assay_value": "> 4000 nM"
  }
]

Report measured IC50; entry is CC(O)(CS(=O)(=O)c1ccc(F)cc1)C(=O)Nc1ccc(C#N)c(C(F)(F)F)c1 (stereo unspecified) [BICALUTAMIDE]
> 1020 nM

Report measured IC50; entry is CO[C@@]12[C@H](COC(N)=O)C3=C(C(=O)C(C)=C(N)C3=O)N1C[C@@H]1N[C@@H]12
< 62.5 nM

* * *

- System: HCC1419;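 also: growth inhibition of human HCC1419 cells, read out as cell viability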
- protocol_summary: cells
- Format: functional, cell-based
- condition_set: Homo sapiens
- Description: SANGER: Inhibition of human HCC1419 cell growth in a cell viability assay.
observed_property: IC50

Report measured IC50; entry is CC(=O)c1c(C)c2cnc(Nc3ccc(N4CCNCC4)cn3)nc2n(C2CCCC2)c1=O [PALBOCICLIB]
> 4 µM

* * *

- Test system: NCI-H720
- protocol_summary: cells
- Assay type: functional, cell-based
- condition_set: Homo sapiens
- Description: SANGER: Inhibition of human NCI-H720 cell growth in a cell viability assay.
pIC50: −log10 of the molar value.
observed_property: pIC50

In the examples that follow, each entry is paired with its recorded pIC50.
[
  {
    "compound": "C/C(O)=C(\\C#N)C(=O)Nc1cc(Br)ccc1Br",
    "observed_property": "pIC50",
    "assay_value": "< 4.80"
  },
  {
    "compound": "Cc1n[nH]c2ccc(-c3cncc(OC[C@@H](N)Cc4c[nH]c5ccccc45)c3)cc12 [A-443654]",
    "observed_property": "pIC50",
    "assay_value": 6.81
  },
  {
    "compound": "CC(C)=CC[C@@H](O)C1=CC(=O)c2c(O)ccc(O)c2C1=O [SHIKONIN]",
    "observed_property": "pIC50",
    "assay_value": "< 4.80"
  },
  {
    "compound": "CCCS(=O)(=O)Nc1ccc(F)c(C(=O)c2c[nH]c3ncc(Cl)cc23)c1F [PLX-4720]",
    "observed_property": "pIC50",
    "assay_value": "< 5.00"
  },
  {
    "compound": "CC(O)(CS(=O)(=O)c1ccc(F)cc1)C(=O)Nc1ccc(C#N)c(C(F)(F)F)c1 (stereo not drawn) [BICALUTAMIDE]",
    "observed_property": "pIC50",
    "assay_value": "< 5.99"
  },
  {
    "compound": "C[C@]12O[C@H](C[C@]1(O)CO)n1c3ccccc3c3c4c(c5c6ccccc6n2c5c31)CNC4=O [LESTAURTINIB]",
    "observed_property": "pIC50",
    "assay_value": 7.31
  },
  {
    "compound": "C[C@]1(c2nc3c(C(N)=O)cccc3[nH]2)CCCN1 [VELIPARIB]",
    "observed_property": "pIC50",
    "assay_value": "< 5.30"
  }
]

Note: attention shifts to another entry.
GET pIC50 where system = NCI-H720 and item = Cc1nc(Nc2ncc(C(=O)Nc3c(C)cccc3Cl)s2)cc(N2CCN(CCO)CC2)n1 [DASATINIB];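 also: growth inhibition of human NCI-H720 cells determined by a cell viability assay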
< 5.89

* * *

This listing pairs compounds with measured IC50.
- Tested on: HuCCT-1
- protocol_summary: cells
- Format: functional, cell-based, HuCCT1
- condition_set: Homo sapiens
- Description: SANGER: Inhibition of human HuCCT1 cell growth in a cell viability assay.
Numbers only here, please. The scale is nM.

[
  {
    "smiles_entry": "C[C@]12O[C@H](C[C@]1(O)CO)n1c3ccccc3c3c4c(c5c6ccccc6n2c5c31)CNC4=O",
    "IC50 [nM]": 862
  }
]

Note: attention shifts to another entry.
Report measured IC50; entry is CO[C@@]12[C@H](COC(N)=O)C3=C(C(=O)C(C)=C(N)C3=O)N1C[C@@H]1N[C@@H]12
904

* * *

- Tested on: SK-HEP1;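 also: cell viability readout used to quantify reduction in proliferation of human SK-HEP-1 cells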
- protocol_summary: cells
- Type: functional, cell-based, SK-HEP-1
- condition_set: Homo sapiens
- Description: SANGER: Inhibition of human SK-HEP-1 cell growth in a cell viability assay.
pIC50: −log10 of the molar value.
Classify as follows. Reported pIC50 greater than or equal to 7: yes (1). Reported pIC50 below: no (0).

Examples from the recorded data:
[
  {
    "compound": "C[C@]12O[C@H](C[C@]1(O)CO)n1c3ccccc3c3c4c(c5c6ccccc6n2c5c31)CNC4=O",
    "group": "yes (1)"
  },
  {
    "compound": "CCCS(=O)(=O)Nc1ccc(F)c(C(=O)c2c[nH]c3ncc(Cl)cc23)c1F",
    "group": "no (0)"
  },
  {
    "compound": "Cn1cc(/C=C2\\C(=O)Nc3cccnc32)c2ccccc21",
    "group": "no (0)"
  },
  {
    "compound": "O=c1cc(N2CCOCC2)oc2c(-c3cccc4c3sc3ccccc34)cccc12",
    "group": "no (0)"
  },
  {
    "compound": "Fc1cc(-c2cc[nH]/c(=N/c3ccc(-n4cnc(N5CCOCC5)n4)cc3)n2)cc(N2CCOCC2)c1",
    "group": "no (0)"
  },
  {
    "compound": "CC[C@]1(O)C[C@@H]2CN(CCc3c([nH]c4ccccc34)[C@@](C(=O)OC)(c3cc4c(cc3OC)N(C)[C@H]3[C@@](O)(C(=O)OC)[C@H](OC(C)=O)[C@]5(CC)C=CCN6CC[C@]43[C@@H]65)C2)C1",
    "group": "yes (1)"
  },
  {
    "compound": "Cn1c(=O)n(-c2ccc(C(C)(C)C#N)cc2)c2c3cc(-c4cnc5ccccc5c4)ccc3ncc21",
    "group": "yes (1)"
  },
  {
    "compound": "CCNC(=O)c1noc(-c2cc(C(C)C)c(O)cc2O)c1-c1ccc(CN2CCOCC2)cc1",
    "group": "yes (1)"
  }
]

Decide: pIC50 of CC(O)(CS(=O)(=O)c1ccc(F)cc1)C(=O)Nc1ccc(C#N)c(C(F)(F)F)c1 (centres undefined) [BICALUTAMIDE] >= 7?
no (0)
